The following variants are shown together with reported reverse-splicing fitness values.
B1: Azoarcus group I ribozyme (parent)
chain: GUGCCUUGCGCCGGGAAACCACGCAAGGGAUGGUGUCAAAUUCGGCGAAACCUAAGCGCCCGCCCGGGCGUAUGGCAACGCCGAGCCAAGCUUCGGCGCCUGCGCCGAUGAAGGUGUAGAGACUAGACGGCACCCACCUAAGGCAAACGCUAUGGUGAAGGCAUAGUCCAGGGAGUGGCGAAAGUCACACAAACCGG

Variants of: B1
procedure.summary: reverse-splicing fitness (ratio to wild type); higher = more active; in vitro selection; Mg2+ level not given
Keep the answer to the number alone.

Some variants with known reverse-splicing fitness results, for comparison:
[[record]]
variant_key = "C82G A111G A120C C150A C169G U176G"
readout_value = 0.00655

[[record]]
variant_key = "C82U A111U A120U A145C C150G C169U"
readout_value = 0.00284

[[record]]
variant_key = "C82A A111C A120C A145C C150G C169U"
readout_value = 0.00879


Documented reverse-splicing fitness of C82G A111C A120G A145G C150G U176G : 0.00597

Documented reverse-splicing fitness of A111G A120G A145G C150G C169A U176A : 0.0122

Documented reverse-splicing fitness of C82U A111G A120G A145U C169G U176C : 0.0118

Documented reverse-splicing fitness of C82U A111U A145G C150A C169A : 0.00979

Documented reverse-splicing fitness of C82G A111G A120U A145U C150G U176C : 0.00556

Documented reverse-splicing fitness of A111U A120U A145C C169A U176A : 0.0026

Documented reverse-splicing fitness of C82U A111G A145G C169G : 0.00933
